Values from patent US8895695B2

Protocol notes: in vitro;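 further: MTT reduction read as absorbance at 595 nm, blank-corrected and expressed as percent growth relative to the time-zero cell reading, triplicate wells per concentration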
Run conditions: human
Bridge positions count the residues as written; N and C are the ends. Square brackets hold non-standard residues; d marks the D form. Peptide text beside a SMILES is read from it. 2Nal = N[C@@H](Cc1ccc2ccccc2c1)C(=O)O; Cit = NC(=O)NCCC[C@H](N)C(=O)O
Record form. Attribute: GI50 at 48 h. Fill in for each entry.
Please give the number followed by its unit.

Please supply the value of reported GI50 at 48 h for the item C[C@@H]1NC(=O)[C@H](CCCNC(=N)N)NC(=O)[C@H](Cc2ccc(O)cc2)NC(=O)[C@@H]2CCCN2C(=O)[C@H]2CCCN2C(=O)[C@H](CCCCN)NC(=O)[C@H](CCC(N)=O)NC(=O)[C@H](Cc2ccc(O)cc2)NC(=O)[C@@H]2CSSC[C@H](NC1=O)C(=O)N[C@@H](CCCNC(=N)N)C(=O)NCC(=O)N1CCC[C@@H]1C(=O)N[C@@H](CCCNC(=N)N)C(=O)N[C@@H](CCCNC(=N)N)C(=O)N[C@@H](Cc1ccc3ccccc3c1)C(=O)N2 [Ex. 95] (cyclo(YRACRG[dP]RR[2Nal]CYQK[dP]P); disulfide 4-11)
41 µM

Using the record for N=C(N)NCCC[C@@H]1NC(=O)[C@@H]2CSSC[C@H](NC(=O)[C@H](Cc3ccc4ccccc4c3)NC(=O)[C@H](CCCNC(=N)N)NC(=O)[C@H](CCCNC(=N)N)NC(=O)[C@H]3CCCN3C(=O)CNC1=O)C(=O)N[C@@H](Cc1ccc(O)cc1)C(=O)N[C@@H](CO)C(=O)N[C@@H](CCCCN)C(=O)N1CCC[C@@H]1C(=O)N1CCC[C@H]1C(=O)N[C@@H](Cc1ccc(O)cc1)C(=O)N[C@@H](CCCNC(=N)N)C(=O)N[C@@H](CCCNC(N)=O)C(=O)N2 [Ex. 81] (cyclo(YR[Cit]CRG[dP]RR[2Nal]CYSK[dP]P); disulfide 4-11) , state its measured GI50 at 48 h.
45 µM
